System: rat uterus (uterine cornuae)
Test: Uterine relaxant activity, inhibition of spontaneous contractions of the isolated uterus (De Jalon method)
Set-up: species or system rat (Sprague Dawley)
Settings: 0.5 γ/ml of bath
Kindly state % Inhibition of spontaneous uterine contractions for each of the entries shown.
Answers are plain numbers, in %.

Known results for compounds:
>>> endpoint_value("CC(COc1ccccc1)NC(C)C(O)c1ccccc1 (stereo not shown) [Compound D, reference compound]")
70
>>> endpoint_value("CC(COc1ccccc1)NC(C)C(O)c1ccc(O)cc1 (stereo not shown) [Isoxsuprine, reference compound]")
100
>>> endpoint_value("CCC(=O)c1ccc(OCCNC(C)Cc2ccccc2)cc1 (stereo not shown) [Example 1]")
0

Alright, here's another compound for you.
Lab note: measured % Inhibition of spontaneous uterine contractions of CCC(O)c1ccc(OCCNC(C)Cc2ccccc2)cc1 (stereo not shown) [Example 4] was 0
